- target-system: T1, β-catenin (UniProt P35222 134-665, limits assumed, biotinylated in the SPR and plate assays)
- T1 sequence (looked up): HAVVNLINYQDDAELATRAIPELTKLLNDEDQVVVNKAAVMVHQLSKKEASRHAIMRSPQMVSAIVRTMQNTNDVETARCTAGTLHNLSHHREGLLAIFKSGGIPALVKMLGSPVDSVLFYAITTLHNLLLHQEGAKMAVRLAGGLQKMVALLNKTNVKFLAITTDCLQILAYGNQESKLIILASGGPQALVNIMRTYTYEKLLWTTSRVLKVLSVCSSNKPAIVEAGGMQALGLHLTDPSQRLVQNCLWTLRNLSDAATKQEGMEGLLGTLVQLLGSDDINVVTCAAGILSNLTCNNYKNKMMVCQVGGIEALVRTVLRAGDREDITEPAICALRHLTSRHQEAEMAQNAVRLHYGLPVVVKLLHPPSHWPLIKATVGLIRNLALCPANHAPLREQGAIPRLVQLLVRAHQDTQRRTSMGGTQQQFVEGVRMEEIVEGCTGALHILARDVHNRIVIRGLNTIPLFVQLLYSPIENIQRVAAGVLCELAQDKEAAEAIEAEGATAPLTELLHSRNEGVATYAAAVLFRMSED
- procedure-summary: cell-based or functional assay
Bridges are numbered along the chain shown (N, C = ends). [ ]: non-standard residue; d: D form. The star is where a group is joined. Chg = N[C@H](C(=O)O)C1CCCCC1; Lauroyl = CCCCCCCCCCCC(=O)*; NMeA = CN[C@@H](C)C(=O)O
Wnt Reporter EC50 listing for selected binders.
observed-property: Wnt Reporter EC50

binder	recorded-measurement
KMIRMWFLISFWG (cyclo-H2N-K(Aoc*)MIRM-NmeW-FLISFWG*) [SEQ ID NO: 21]	> 30 µM
EDPQKILDEHLQRVLK (not fully specified; H23C11C(O)NH-EDPQK*ILDE*HLQRVLK-NH2) [SEQ ID NO: 444]	> 30 µM
KWILICFWD (HELM PEPTIDE1{K.W.I.L.I.C.F.W.D}$PEPTIDE1,PEPTIDE1,1:R3-9:R3$$$V2.0; SMILES CC[C@H](C)[C@@H]1NC(=O)[C@H](CC(C)C)NC(=O)[C@H]([C@@H](C)CC)NC(=O)[C@H](Cc2c[nH]c3ccccc23)NC(=O)[C@@H](N)CCCCNC(=O)C[C@@H](C(=O)O)NC(=O)[C@H](Cc2c[nH]c3ccccc23)NC(=O)[C@H](Cc2ccccc2)NC(=O)[C@H](CS)NC1=O) [SEQ ID NO: 120]	≤ 7.5 µM
Lauroyl-W[NMeA]QSILDEH[Chg]QKVWG-NH2 (lactam 8-12; not fully specified; printed as Lauroyl-NH-W-NMeA-QSILDE*H-Chg-QK*VWG-NH2) [SEQ ID NO: 471]	≤ 7.5 µM
